Tested on: HL-60(TB) leukemia
Assay: NCI-60 one-dose screen, 48 h
Settings: 10 µM unless noted
The panel holds about 83,000 compounds, 20% with a hit somewhere; the sample as a whole holds those more often. Calls of active or inactive are those of the source. The calls were made as follows: active = growth percent below 10; inactive = the rest.
Allowed answers: 1 (active), 0 (inactive)

Worked examples, 3 compounds total:
| compound | assignedLabel |
| --- | --- |
| O=C(NNC(=O)c1ccc(OCc2nc3ccc(Cl)cc3[nH]2)cc1)Nc1ccc(Cl)c(C(F)(F)F)c1 | 0 |
| CC(=O)c1ccc2c(N)c(C(=O)Nc3ccc(C(F)(F)F)cc3)sc2n1 | 0 |
| COc1ccc(C(=O)/C=C/c2cc(C(F)(F)F)cc(C(F)(F)F)c2)cc1S(N)(=O)=O | 1 |

Query: Could you please tell me the result logged for O=C(CSc1nnc(-c2c[nH]c3ccccc23)n1-c1ccccc1)Nc1ccc(C(=O)/C=C/c2cccc([N+](=O)[O-])c2)cc1 in this assay?
Result: 0

Query: Also need COc1ccc2[nH]cc(-c3nc(N)nnc3-c3cn(C)c4ncc(Br)cc34)c2c1 , thanks.
Result: 1
